assay: Penetration ratio, ratio of AUC for alveolar macrophage cells of healthy human to AUC for human plasma; format: ADME, cell-based; conditions: read-out: Ratio AUC
Numbered stars: 1 amine (or outer) side, 2 acyl side, 3 side chain; on linkers, the order of the positions; unused ones are H or OH. Bridge positions count the residues as written; N and C are the ends. Square brackets hold non-standard residues; d marks the D form. Peptide text beside a SMILES is read from it. * marks the point of attachment. hTyr(3S-OH,4S-OH,3'-OSO3H) = N[C@H](C(=O)O)[C@H](O)[C@@H](O)c1ccc(O)c(OS(=O)(=O)O)c1; Orn(4R-OH,5R-OH) = O=C([C@H](C[C@@H](O)[C@@H](O)N[*:3])N[*:1])[*:2]; Pro(3S-OH,4S-Me) = C[C@H]1CN[C@H](C(=O)O)[C@H]1O; X1 = CCCCCOc1ccc(-c2cc(-c3ccc(C(=O)*)cc3)no2)cc1; Gln(3R-OH) = NC(=O)C[C@@H](O)[C@H](N)C(=O)O; Hyp = O=C(O)[C@@H]1C[C@@H](O)CN1

Molecule	Kp
CCCCCOc1ccc(-c2cc(-c3ccc(C(=O)N[C@H]4C[C@@H](O)[C@@H](O)NC(=O)[C@@H]5[C@@H](O)[C@@H](C)CN5C(=O)[C@H]([C@H](O)CC(N)=O)NC(=O)[C@H]([C@H](O)[C@@H](O)c5ccc(O)c(OS(=O)(=O)O)c5)NC(=O)[C@@H]5C[C@@H](O)CN5C(=O)[C@H]([C@@H](C)O)NC4=O)cc3)no2)cc1 [MICAFUNGIN] (X1-[Orn(4R-OH,5R-OH)]T[Hyp][hTyr(3S-OH,4S-OH,3'-OSO3H)][Gln(3R-OH)][Pro(3S-OH,4S-Me)]; lactam 1-C)	106
